B1: scFv; the commonest letter at each place (parent)
chain 1: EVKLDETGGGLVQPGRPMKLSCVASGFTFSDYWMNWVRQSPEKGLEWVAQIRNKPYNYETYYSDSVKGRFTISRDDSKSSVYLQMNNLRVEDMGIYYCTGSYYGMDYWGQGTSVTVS
chain 2: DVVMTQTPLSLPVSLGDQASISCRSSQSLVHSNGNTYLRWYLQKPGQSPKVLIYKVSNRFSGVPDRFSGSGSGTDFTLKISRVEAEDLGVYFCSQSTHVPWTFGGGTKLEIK

- Variants of: B1
- method: yeast surface expression (ratio to wild type); higher = more expressed
- run parameters: format: scFv 4-4-20, heavy + light
Dear colleague, classification is by yeast surface expression, with ranges listed here: bucket A: < 0.5; bucket B: ≥ 0.5 and < 0.8; bucket C: ≥ 0.8

The following variants have reported results that may help.
variant spec	label class
chain 1 T28E F29Y	bucket C
chain 1 S101W G104W	bucket A
chain 1 Y107M G109K	bucket A

Consider chain 1 S101T Y102H . To which yeast surface expression class does it belong?
bucket B

Consider chain 1 S30Q D31H Y32N . To which yeast surface expression class does it belong?
bucket C

Consider chain 1 T28E Y32V . To which yeast surface expression class does it belong?
bucket C

Consider chain 1 S30F W36D . To which yeast surface expression class does it belong?
bucket A

Consider chain 1 S30K V37A . To which yeast surface expression class does it belong?
bucket B

Consider chain 1 S101Q G104V . To which yeast surface expression class does it belong?
bucket A

Consider chain 1 D106P W108M . To which yeast surface expression class does it belong?
bucket B

Consider chain 1 T28S W36R . To which yeast surface expression class does it belong?
bucket B

These data points were gathered from the FLAb antibody collection (doi:10.7554/elife.23156).
